# protocol text: Cytotoxicity in myoblasts
# condition info: mouse, primary mouse myoblasts, Myoblast CC50, AVERAGE (S1 File)
Quick list: CC50 per entry.
Answer in mM, number only, no unit symbol.

Some entries whose results are on file:
molecule	CC50 [mM]
CN[C@@H]1[C@@H](O)[C@@H](O[C@@H]2[C@@H](O)[C@H](O[C@H]3O[C@H](CO)[C@@H](O)[C@H](O)[C@H]3N)[C@@H](N)C[C@H]2N)OC[C@]1(C)O (stereo in doubt) [Gentamicin X2, gentamicin X2]	0.834
CN[C@@H]1[C@@H](O)[C@@H](O[C@@H]2[C@@H](O)[C@H](O[C@H]3O[C@H](CO)[C@@H](O)[C@H](O)[C@H]3N)[C@@H](N)C[C@H]2N)OC[C@H]1O [Gentamicin A, gentamicin A]	6.21

Record request: CC50 value, item CN[C@@H]1[C@@H](O)[C@@H](O[C@@H]2[C@@H](O)[C@H](O[C@H]3O[C@H]([C@H](C)N)CC[C@H]3N)[C@@H](N)C[C@H]2N)OC[C@]1(C)O [Gentamicin C2a, gentamicin C2a]
5.68

CC50 for CN[C@@H]1[C@@H](O)[C@@H](O[C@@H]2[C@@H](O)[C@H](O[C@H]3O[C@H]([C@@H](C)N)CC[C@H]3N)[C@@H](N)C[C@H]2N)OC[C@]1(C)O [Gentamicin C2, gentamicin C2] ?
3.78
